assay-name: protein stability index of a GFP-peptide fusion (GPS, HEK-293T) (PSI 1-6); higher = more stable;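 note: 24-mer peptide tiles fused after GFP, lentivirally expressed, FACS-sorted into six equal bins by GFP/DsRed ratio, decoded by Illumina sequencing, PSI is the read-weighted mean bin number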
experimental-setup: treatment: DMSO; c terminus: a fixed tail appended
measured-metric: protein stability index
API note: the answer field is a bare number with no unit suffix.

**Q:** For the sequence FEQLPDDVAISANIADIEEKRGFT [NCF4] , what protein stability index is on record?
**A:** 5.03

**Q:** For the sequence LQDQEKAWGFPENATAPRSPSHSP [ELOA2] , what protein stability index is on record?
**A:** 5.38

**Q:** For the sequence SLQERKQALYEYARRRFTERRAQE [AUP1] , what protein stability index is on record?
**A:** 4.53

**Q:** For the sequence VELPCRISPGKNATGMEVGWYRPP [MOG] , what protein stability index is on record?
**A:** 2.33

**Q:** For the sequence YTVKDKATGEVLGQFYLDLYPREG [NLN] , what protein stability index is on record?
**A:** 3.1

**Q:** For the sequence LGYPYVNSVSSHASSPYISSVQSY [DLX1] , what protein stability index is on record?
**A:** 2.29

**Q:** For the sequence KHNHSKSTWLILHHKVYDLTKFLE [CYB5A] , what protein stability index is on record?
**A:** 2.6

**Q:** For the sequence PPHREGEAAGGDHETESTSDKETD [CDS1] , what protein stability index is on record?
**A:** 5.67

**Q:** For the sequence LFQVVINPNFEVAESDYSNNIMKC [LOXL2] , what protein stability index is on record?
**A:** 2.09

**Q:** For the sequence MRQFLRGLDFLHANCIVHRDLKPE [CDK4] , what protein stability index is on record?
**A:** 2.21

**Q:** For the sequence QPLNFVRFYLPLLIHQHEKVIYLD [GLT8D2] , what protein stability index is on record?
**A:** 3.02

**Q:** For the sequence TCGGGVQFSSRDCTRPVPRNGGKY [ADAMTS4] , what protein stability index is on record?
**A:** 4.19

**Q:** For the sequence APELLGGAEPGTYLTGTINGDPES [ADAMTS4] , what protein stability index is on record?
**A:** 5.73

**Q:** For the sequence CGCGSFCRLGYGCGYEGCRYGCGH [KRTAP19-2] , what protein stability index is on record?
**A:** 2.55

**Q:** For the sequence ISFGQLSDRFGRKKVYLTGFALDI [SLC22A15] , what protein stability index is on record?
**A:** 2.97

**Q:** For the sequence TNITEVDAASVYTLPAGADFLMCY [CASP6] , what protein stability index is on record?
**A:** 2.35

**Q:** For the sequence KDRETSKVIYDFIEKTGGVEAVKN [WASL] , what protein stability index is on record?
**A:** 3.28

**Q:** For the sequence KKFRSSTSSSLGDKSEYLEMEEGV [KCNA4] , what protein stability index is on record?
**A:** 4.6

**Q:** For the sequence STPLTATPGGRGDMKYGIYAVENE [VTI1B] , what protein stability index is on record?
**A:** 4.53

**Q:** For the sequence CGRRGIKVWSLTGQVAEDRFPESH [TLE6] , what protein stability index is on record?
**A:** 2.79

**Q:** For the sequence ESFLAWKKRKRQEKIDKLEQDMER [ZC3H15] , what protein stability index is on record?
**A:** 3.8
